- assay_name: Tested for concentration in brain after 2 hrs of intravenous administration (5 mg/kg) to male rats
- Type: ADME, organism-based
- stated_conditions: rat
experimental_readout: concentration at 2 h (ng/g)
Please reply with the bare figure in ng/g and do not write the unit itself.

compound_structure_string	measure_unit	concentration at 2 h
Nc1c(O)nc2ccc(C(F)(F)F)cc2c1-c1cc(Cl)ccc1O	ng/g	1490

Below: the item to evaluate.
Lookup: Which concentration at 2 h reading was recorded for the molecule Nc1c(O)nc2cc(C(F)(F)F)ccc2c1-c1cc(Cl)ccc1O ?
Found: 1480

###

- assay_name: Ratio of the AUC values of brain and plasma after intravenous administration (4.7 mg/kg) to male rats was evaluated
- Format: ADME, organism-based
- stated_conditions: rat
experimental_readout: Kp
Returns: the value as a bare number; no unit string appended.

Lookup: Which Kp reading was recorded for the molecule Nc1c(O)nc2ccc(C(F)(F)F)cc2c1-c1cc(Cl)ccc1O ?
Found: 7.1
